study system: MAPK14 (UniProt Q16539)
Sequence (Q16539 whole entry, looked up): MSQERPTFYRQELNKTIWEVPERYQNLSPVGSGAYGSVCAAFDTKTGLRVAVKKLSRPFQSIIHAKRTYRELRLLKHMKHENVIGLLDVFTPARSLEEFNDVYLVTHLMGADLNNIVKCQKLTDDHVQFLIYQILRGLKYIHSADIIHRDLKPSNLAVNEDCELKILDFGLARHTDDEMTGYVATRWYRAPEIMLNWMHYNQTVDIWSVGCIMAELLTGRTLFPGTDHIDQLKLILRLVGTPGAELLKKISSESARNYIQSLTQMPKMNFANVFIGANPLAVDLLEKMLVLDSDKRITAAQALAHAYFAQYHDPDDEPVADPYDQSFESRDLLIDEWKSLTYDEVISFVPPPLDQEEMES
Label criterion met when IC50 is strictly below 1000 nM; at or above that, label criterion not met.

NC(=O)N(Cc1ccccc1Cl)c1cccc(-c2ccc(Cl)cc2)n1 :: criterion not met
NC(=O)N(Cc1ccccc1F)c1cccc(-c2ccccc2Cl)n1 :: criterion met
NC(=O)N(Cc1ccc(F)cc1)c1cccc(-c2ccccc2Cl)n1 :: criterion not met
NC(=O)N(Cc1c(F)cccc1F)c1ccc(CO)c(-c2ccccc2Cl)n1 :: criterion not met

Criterion: IC50 strictly below 1000 nM. Is it met by NC(=O)N(Cc1ccccc1)c1cccc(-c2ccccc2Cl)n1 ?
criterion not met

Criterion: IC50 strictly below 1000 nM. Is it met by NC(=O)N(Cc1c(Cl)cccc1Cl)c1cccc(-c2ccccc2Cl)n1 ?
criterion not met

Criterion: IC50 strictly below 1000 nM. Is it met by Cc1cc(F)ccc1-c1cccc(N(Cc2ccccc2Cl)C(N)=O)n1 ?
criterion not met

* * *

Entries with reported pIC50 on MAPK14 (UniProt Q16539)
Keep it numeric: pIC50 is minus log10 of the concentration in mol/L.

Cc1cc(F)ccc1-c1cccc(N(Cc2c(Cl)cccc2Cl)C(N)=O)n1 :: 5.67

For reference, reported pIC50 for NC(=O)N(Cc1ccccc1Cl)c1cccc(-c2ccccc2Cl)n1 stands at 6.05

For reference, reported pIC50 for Cc1ccccc1-c1cccc(N(CCc2ccccc2)C(N)=O)n1 stands at 6.01

Where do these numbers come from? They come from the Kinase Knowledgebase extract (Sharma et al. 2016).
